Tested on: HDAC (Mouse Liver Extract)
Construct: Mouse liver enzyme (10 mg/ml) was diluted 1:6 with HDAC buffer
protocol.description: HDAC inhibition assay using Boc-Lys(Ac)-AMC substrate, mouse liver enzyme
Assay type: biochemical
stated.conditions: 1 μM
Label fulfilled for high-side HDAC Inhibition % (1 μM) (at or above 30%) and not fulfilled for low-side HDAC Inhibition % (1 μM) (below it).

Check out these entries, answers already filled in.
COc1ccc(/C(=C\c2ccc(C(=O)NCc3ccc(C(=O)NO)cc3)cc2)C(=O)NC2CC2)cc1 | fulfilled
Nc1ccccc1NC(=O)/C=C/c1ccc(/C=C(/C(=O)NC2CC2)c2cccs2)cc1 | not fulfilled
Nc1ccccc1NC(=O)c1ccc(C=C(C(=O)NC2CC2)c2ccc(C(F)(F)F)cc2)cc1 | fulfilled
Nc1ccccc1NC(=O)/C=C/c1ccc(/C=C(/C(=O)NC2CC2)c2ccccc2F)cc1 | fulfilled

Confirm if HDAC Inhibition % (1 μM) reported for the compound COc1cccc(/C(=C\c2ccc(/C=C/C(=O)Nc3ccccc3N)cc2)C(=O)NC2CC2)c1 is 30% or above.
not fulfilled

Confirm if HDAC Inhibition % (1 μM) reported for the compound COc1ccc(/C=C(/C(=O)NC2CC2)c2cccc(/C=C/C(=O)NO)c2)cc1OC is 30% or above.
fulfilled
